# MEASUREMENT_TARGET: DNA polymerase eta (Homo sapiens) (UniProt Q9Y253)
# Sequence (Q9Y253 whole entry, looked up): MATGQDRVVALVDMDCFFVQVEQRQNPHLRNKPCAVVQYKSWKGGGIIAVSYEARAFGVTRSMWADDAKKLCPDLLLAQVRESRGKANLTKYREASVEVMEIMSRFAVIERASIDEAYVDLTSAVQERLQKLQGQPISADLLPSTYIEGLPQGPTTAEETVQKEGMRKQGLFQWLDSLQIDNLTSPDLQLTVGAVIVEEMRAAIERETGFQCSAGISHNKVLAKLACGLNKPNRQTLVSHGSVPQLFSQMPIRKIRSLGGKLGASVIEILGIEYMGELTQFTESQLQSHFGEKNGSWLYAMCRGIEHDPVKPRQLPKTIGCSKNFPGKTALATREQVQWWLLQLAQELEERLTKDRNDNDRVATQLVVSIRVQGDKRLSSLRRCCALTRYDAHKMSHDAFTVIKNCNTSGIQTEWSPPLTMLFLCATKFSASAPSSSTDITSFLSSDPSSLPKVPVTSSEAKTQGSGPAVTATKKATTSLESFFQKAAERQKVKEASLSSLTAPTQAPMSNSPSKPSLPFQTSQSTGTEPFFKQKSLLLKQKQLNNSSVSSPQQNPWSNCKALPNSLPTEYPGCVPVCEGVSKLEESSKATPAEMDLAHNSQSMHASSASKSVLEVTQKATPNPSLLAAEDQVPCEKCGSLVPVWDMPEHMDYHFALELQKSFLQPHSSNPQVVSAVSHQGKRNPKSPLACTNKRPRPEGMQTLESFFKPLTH
# ASSAY_OVERVIEW: qHTS for Inhibitors of Polymerase Eta
# CONDITIONS: recombinant Pol eta, fluorescent DNA replication assay; series mostly up to 114 µM
In all, about 390,000 compounds went through this assay and about 4,700 (1.2%) were called active. Not shown: some 4% with an inconclusive outcome. Calls come from the whole dose curve; as a rule, active = well fitted inhibition curve with a large enough effect; inconclusive = small, poorly fitted or top-dose-only effect, or another doubt; inactive = no such curve, though single readings can be large or run the other way. Many of the other results were omitted from the sample, so actives are more common in it than they were.
Use one of these outcomes when replying: label 1 (active), label 0 (inactive)

Problem: // outcome(item) with item = O=C1NC(=O)C(C/C=C/c2ccccc2)C(=O)N1
Result: label 0

Problem: For this molecule, state the assay outcome: COC(=O)C(O)(c1ccc(NC(=O)c2ccco2)c(OC)c1)C(F)(F)F (stereo not given)
Result: label 0

Problem: Outcome logged for CN1C2C=C(N(C(=O)c3ccc(Cl)cc3)c3ccccc3)CC1CC2 (stereo not given) in this assay:
Result: label 0

Problem: Identify the outcome logged in this assay for the molecule shown: Nc1ccc([N+](=O)[O-])cc1
Result: label 0

Problem: Hi team, can someone confirm the assay call for CN1CCc2nc(SC(C(=O)O)c3ccccc3)c(C#N)c(-c3cccs3)c2C1 (stereo not given) ?
Result: label 1
